Form field: IC50 (one value per entry).
Test system: Cell line
Run Description: Concentration required for inhibition of Cu+2-induced peroxidation in low-density lipoprotein of human
Type: functional, cell-based
Entry rule: numbers only, all in µM.

Observe how each entry below is paired with its result.
| Smiles Notation | IC50 (µM) |
| --- | --- |
| CC(C)(Sc1cc(C(C)(C)C)c(O)c(C(C)(C)C)c1)Sc1cc(C(C)(C)C)c(O)c(C(C)(C)C)c1 | 2.8 |
| C/C=C/c1ccc(O[C@@H](C)[C@@H](O)c2ccc(O)c(OC)c2)c(OC)c1 | 3.8 |

Which IC50 value is on record for `COc1ccc(C[C@H](C)[C@@H](C)Cc2cc(OC)c(O)cc2O)cc1O` ?
3.3
